Test: MicroPET blood and normal organ uptake in T47D and MDA-MB-435 tumor-bearing nude mice
Details: nude, mouse, blood, iv, total radioactivity
readout.kind: tissue uptake at 0.5 h (%ID/g)
Enter your answer as a number in %ID/g; do not include the unit.

Given the compound CSCC[C@H](NC(=O)[C@H](CC(C)C)NC(=O)[C@H](Cc1c[nH]cn1)NC(=O)CNC(=O)[C@@H](NC(=O)[C@H](C)NC(=O)[C@H](Cc1c[nH]c2ccccc12)NC(=O)[C@H](CCC(N)=O)NC(=O)CCCCCNC(=O)CC[C@H](NC(=O)COCCOCCOCCNC(=O)c1ccc([18F])cc1)C(=O)NCCCC[C@@H]1NC(=O)[C@@H](Cc2ccc(O)cc2)NC(=O)[C@H](CC(=O)O)NC(=O)CNC(=O)[C@H](CCCNC(=N)N)NC1=O)C(C)C)C(N)=O [^18F-FB-PEG3-RGD-BBN] , write its reported tissue uptake at 0.5 h.
0.78

====

Assay: Small-animal PET of MDA-MB-435 tumor-bearing mice
Conditions: female, athymic nude, mouse, in vivo, iv, total radioactivity, MDA-MB-435 tumor uptake
readout.kind: tissue uptake at 24 h (%ID/g)
Enter your answer as a number in %ID/g; do not include the unit.

Given the compound CSCC[C@H](NC(=O)[C@H](CC(C)C)NC(=O)[C@H](Cc1c[nH]cn1)NC(=O)CNC(=O)[C@@H](NC(=O)[C@H](C)NC(=O)[C@H](Cc1c[nH]c2ccccc12)NC(=O)[C@H](CCC(N)=O)NC(=O)CCCCCNC(=O)CC[C@H](NC(=S)Nc1ccc(C[C@H]2CN(CC(=O)O)CCN(CC(=O)O)CCN2CC(=O)O)cc1)C(=O)NCCCC[C@@H]1NC(=O)[C@@H](Cc2ccc(O)cc2)NC(=O)[C@H](CC(=O)O)NC(=O)CNC(=O)[C@H](CCCNC(=N)N)NC1=O)C(C)C)C(N)=O [^64Cu-NOTA-RGD-BBN, metal not drawn] , write its reported tissue uptake at 24 h.
1.29

====

Assay: Small-animal PET of MDA-MB-435 tumor-bearing mice
Conditions: female, athymic nude, mouse, in vivo, iv, total radioactivity, MDA-MB-435 tumor uptake
readout.kind: tissue uptake at 0.5 h (%ID/g)
Enter your answer as a number in %ID/g; do not include the unit.

Given the compound CSCC[C@H](NC(=O)[C@H](CC(C)C)NC(=O)[C@H](Cc1c[nH]cn1)NC(=O)CNC(=O)[C@@H](NC(=O)[C@H](C)NC(=O)[C@H](Cc1c[nH]c2ccccc12)NC(=O)[C@H](CCC(N)=O)NC(=O)CCCCCNC(=O)CC[C@H](NC(=O)COCCOCCOCCNC(=O)c1ccc([18F])cc1)C(=O)NCCCC[C@@H]1NC(=O)[C@@H](Cc2ccc(O)cc2)NC(=O)[C@H](CC(=O)O)NC(=O)CNC(=O)[C@H](CCCNC(=N)N)NC1=O)C(C)C)C(N)=O [^18F-FB-PEG3-RGD-BBN] , write its reported tissue uptake at 0.5 h.
2.72

====

Assay: MicroPET of T47D tumor-bearing mice
Assay type: in vivo
Settings: female, nude, mouse, T47D tumor, iv, total radioactivity, orthotopic model, 2 h
readout.kind: tissue uptake at 2 h (%ID/g)
Enter your answer as a number in %ID/g; do not include the unit.

Given the molecule CSCC[C@H](NC(=O)[C@H](CC(C)C)NC(=O)[C@H](Cc1c[nH]cn1)NC(=O)CNC(=O)[C@@H](NC(=O)[C@H](C)NC(=O)[C@H](Cc1c[nH]c2ccccc12)NC(=O)[C@H](CCC(N)=O)NC(=O)CCCCCNC(=O)CC[C@H](NC(=S)Nc1ccc(C[C@H]2CN(CC(=O)O)CCN(CC(=O)O)CCN2CC(=O)O)cc1)C(=O)NCCCC[C@@H]1NC(=O)[C@@H](Cc2ccc(O)cc2)NC(=O)[C@H](CC(=O)O)NC(=O)CNC(=O)[C@H](CCCNC(=N)N)NC1=O)C(C)C)C(N)=O [^68Ga-NOTA-RGD-BBN, metal not drawn] , write its reported tissue uptake at 2 h.
2.42

Given the molecule CSCC[C@H](NC(=O)[C@H](CC(C)C)NC(=O)[C@H](Cc1c[nH]cn1)NC(=O)CNC(=O)[C@@H](NC(=O)[C@H](C)NC(=O)[C@H](Cc1c[nH]c2ccccc12)NC(=O)[C@H](CCC(N)=O)NC(=O)CCCCCNC(=O)CC[C@H](NC(=O)COCCOCCOCCNC(=O)c1ccc([18F])cc1)C(=O)NCCCC[C@@H]1NC(=O)[C@@H](Cc2ccc(O)cc2)NC(=O)[C@H](CC(=O)O)NC(=O)CNC(=O)[C@H](CCCNC(=N)N)NC1=O)C(C)C)C(N)=O [^18F-FB-PEG3-RGD-BBN] , write its reported tissue uptake at 2 h.
0.91

====

Experiment: in vivo
Conditions: mouse, in vivo, iv, total radioactivity, T/NT ratio, tumor/muscle
readout.kind: tissue to tissue ratio at 2 h
The reply should be a number, written without any unit.

Given the compound CSCC[C@H](NC(=O)[C@H](CC(C)C)NC(=O)[C@H](Cc1c[nH]cn1)NC(=O)CNC(=O)[C@@H](NC(=O)[C@H](C)NC(=O)[C@H](Cc1c[nH]c2ccccc12)NC(=O)[C@H](CCC(N)=O)NC(=O)CCCCCNC(=O)CC[C@H](NC(=O)COCCOCCOCCNC(=O)c1ccc([18F])cc1)C(=O)NCCCC[C@@H]1NC(=O)[C@@H](Cc2ccc(O)cc2)NC(=O)[C@H](CC(=O)O)NC(=O)CNC(=O)[C@H](CCCNC(=N)N)NC1=O)C(C)C)C(N)=O [^18F-FB-PEG3-RGD-BBN] , write its reported tissue to tissue ratio at 2 h.
10.5

====

Test: MicroPET blood and normal organ uptake in T47D and MDA-MB-435 tumor-bearing nude mice
Conditions: nude, mouse, kidney, iv, total radioactivity
readout.kind: tissue uptake at 0.5 h (%ID/g)
Enter your answer as a number in %ID/g; do not include the unit.

Given the compound CSCC[C@H](NC(=O)[C@H](CC(C)C)NC(=O)[C@H](Cc1c[nH]cn1)NC(=O)CNC(=O)[C@@H](NC(=O)[C@H](C)NC(=O)[C@H](Cc1c[nH]c2ccccc12)NC(=O)[C@H](CCC(N)=O)NC(=O)CCCCCNC(=O)CC[C@H](NC(=O)COCCOCCOCCNC(=O)c1ccc([18F])cc1)C(=O)NCCCC[C@@H]1NC(=O)[C@@H](Cc2ccc(O)cc2)NC(=O)[C@H](CC(=O)O)NC(=O)CNC(=O)[C@H](CCCNC(=N)N)NC1=O)C(C)C)C(N)=O [^18F-FB-PEG3-RGD-BBN] , write its reported tissue uptake at 0.5 h.
2.77

====

Consider the following molecules; for each one, report its tissue uptake at 0.5 h.
Assay: MicroPET of T47D tumor-bearing mice
Format: in vivo
Conditions: female, nude, mouse, T47D tumor, iv, total radioactivity, orthotopic model, 0.5 h
Reply with the number and its unit after it.

Given the molecule CSCC[C@H](NC(=O)[C@H](CC(C)C)NC(=O)[C@H](Cc1c[nH]cn1)NC(=O)CNC(=O)[C@@H](NC(=O)[C@H](C)NC(=O)[C@H](Cc1c[nH]c2ccccc12)NC(=O)[C@H](CCC(N)=O)NC(=O)CCCCCNC(=O)CC[C@H](NC(=S)Nc1ccc(C[C@H]2CN(CC(=O)O)CCN(CC(=O)O)CCN2CC(=O)O)cc1)C(=O)NCCCC[C@@H]1NC(=O)[C@@H](Cc2ccc(O)cc2)NC(=O)[C@H](CC(=O)O)NC(=O)CNC(=O)[C@H](CCCNC(=N)N)NC1=O)C(C)C)C(N)=O [^68Ga-NOTA-RGD-BBN, metal not drawn] , write its reported tissue uptake at 0.5 h.
3.91 %ID/g

Given the molecule CSCC[C@H](NC(=O)[C@H](CC(C)C)NC(=O)[C@H](Cc1c[nH]cn1)NC(=O)CNC(=O)[C@@H](NC(=O)[C@H](C)NC(=O)[C@H](Cc1c[nH]c2ccccc12)NC(=O)[C@H](CCC(N)=O)NC(=O)CCCCCNC(=O)CC[C@H](NC(=O)COCCOCCOCCNC(=O)c1ccc([18F])cc1)C(=O)NCCCC[C@@H]1NC(=O)[C@@H](Cc2ccc(O)cc2)NC(=O)[C@H](CC(=O)O)NC(=O)CNC(=O)[C@H](CCCNC(=N)N)NC1=O)C(C)C)C(N)=O [^18F-FB-PEG3-RGD-BBN] , write its reported tissue uptake at 0.5 h.
2.96 %ID/g

====

Consider the following molecules; for each one, report its tissue uptake at 1 h.
Assay: in vivo
Details: mouse, in vivo, iv, 5.5 MBq, total radioactivity, Blood uptake

Given the molecule CSCC[C@H](NC(=O)[C@H](CC(C)C)NC(=O)[C@H](Cc1c[nH]cn1)NC(=O)CNC(=O)[C@@H](NC(=O)[C@H](C)NC(=O)[C@H](Cc1c[nH]c2ccccc12)NC(=O)[C@H](CCC(N)=O)NC(=O)CCCCCNC(=O)CC[C@H](NC(=S)Nc1ccc(C[C@H]2CN(CC(=O)O)CCN(CC(=O)O)CCN2CC(=O)O)cc1)C(=O)NCCCC[C@@H]1NC(=O)[C@@H](Cc2ccc(O)cc2)NC(=O)[C@H](CC(=O)O)NC(=O)CNC(=O)[C@H](CCCNC(=N)N)NC1=O)C(C)C)C(N)=O [^64Cu-NOTA-RGD-BBN, metal not drawn] , write its reported tissue uptake at 1 h.
0.66 %ID/g

Given the molecule CSCC[C@H](NC(=O)[C@H](CC(C)C)NC(=O)[C@H](Cc1c[nH]cn1)NC(=O)CNC(=O)[C@@H](NC(=O)[C@H](C)NC(=O)[C@H](Cc1c[nH]c2ccccc12)NC(=O)[C@H](CCC(N)=O)NC(=O)CCCCCNC(=S)Nc1ccc(C[C@H]2CN(CC(=O)O)CCN(CC(=O)O)CCN2CC(=O)O)cc1)C(C)C)C(N)=O [^64Cu-NOTA-BBN, metal not drawn, reference compound] , write its reported tissue uptake at 1 h.
0.23 %ID/g

Given the molecule N=C(N)NCCC[C@@H]1NC(=O)[C@H](CCCCNC(=S)Nc2ccc(C[C@H]3CN(CC(=O)O)CCN(CC(=O)O)CCN3CC(=O)O)cc2)NC(=O)[C@@H](Cc2ccc(O)cc2)NC(=O)[C@H](CC(=O)O)NC(=O)CNC1=O [^64Cu-NOTA-RGD, metal not drawn, reference compound] , write its reported tissue uptake at 1 h.
0.43 %ID/g

Given the molecule CSCC[C@H](NC(=O)[C@H](CC(C)C)NC(=O)[C@H](Cc1c[nH]cn1)NC(=O)CNC(=O)[C@@H](NC(=O)[C@H](C)NC(=O)[C@H](Cc1c[nH]c2ccccc12)NC(=O)[C@H](CCC(N)=O)NC(=O)CCCCCNC(=O)CC[C@H](NC(=O)CN1CCN(CC(=O)O)CCN(CC(=O)O)CCN(CC(=O)O)CC1)C(=O)NCCCC[C@@H]1NC(=O)[C@@H](Cc2ccc(O)cc2)NC(=O)[C@H](CC(=O)O)NC(=O)CNC(=O)[C@H](CCCNC(=N)N)NC1=O)C(C)C)C(N)=O [^64Cu-DOTA-RGD-BBN, metal not drawn] , write its reported tissue uptake at 1 h.
0.69 %ID/g

Recorded values, source patent US20100015058A1.
